EXPERIMENTAL TARGET: hA3 AR (Homo sapiens)
Construct: expressed in transfected cells; host or cells: CHO cells (membranes)
Sequence (P0DMS8 1-318): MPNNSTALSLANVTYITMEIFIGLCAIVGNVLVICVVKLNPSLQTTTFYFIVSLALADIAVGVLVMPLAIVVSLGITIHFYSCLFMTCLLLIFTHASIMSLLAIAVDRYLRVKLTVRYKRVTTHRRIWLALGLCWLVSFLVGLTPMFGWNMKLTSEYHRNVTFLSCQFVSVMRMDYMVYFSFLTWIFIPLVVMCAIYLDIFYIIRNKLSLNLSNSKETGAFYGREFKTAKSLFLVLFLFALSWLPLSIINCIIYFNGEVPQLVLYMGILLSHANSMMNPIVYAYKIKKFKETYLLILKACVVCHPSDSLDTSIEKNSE
TEST: [125I]AB-MECA competition binding to hA3 CHO membranes
MEASUREMENT CONDITIONS: inhibition at 1 μM, read-out: Binding experiments I% hA3
Exercise: state measured inhibition at 1 µM for each of the compounds provided.
Could you write the number and then its unit?

Record excerpt, results attached:
>>> df
                        structure_as_smiles  experimental_endpoint  measurement
0     Nc1nc(NCc2ccccc2)nc2cn(Cc3ccccc3)nc12     inhibition at 1 µM           1%
1  COc1ccc(CCNc2nc(N)c3nn(-c4ccccc4)cc3n2)cc1OC     inhibition at 1 µM          22%
2             Cn1cc2nc(NCc3ccccc3)nc(N)c2n1     inhibition at 1 µM          20%
3  Nc1nc(NCCc2ccc(O)cc2)nc2cn(-c3ccccc3)nc12     inhibition at 1 µM           1%
4  COc1ccc(CCNc2nc(N)c3nn(-c4ccccc4)cc3n2)cc1     inhibition at 1 µM          19%
5   Nc1nc(NCCCc2ccccc2)nc2cn(-c3ccccc3)nc12     inhibition at 1 µM          24%

Please report inhibition at 1 µM for every entry that follows.
1. Nc1nc(NCCc2ccc(O)c(O)c2)nc2cn(-c3ccccc3)nc12
2. Cn1cc2nc(Nc3ccccc3)nc(N)c2n1
3. Nc1nc(NCCc2ccccc2)nc2cn(-c3ccccc3)nc12
4. Nc1nc(Nc2ccc(O)cc2)nc2cn(-c3ccccc3)nc12

stdout:
["3%", "1%", "38%", "8%"]
